Hello, the source for this data is patent US4663320A, in case you need it.

System: Human platelet cyclic AMP phosphodiesterase
methodSummary: Cyclic AMP phosphodiesterase assay (human platelet)
Type: biochemical
protocolConditions: human platelet phosphodiesterase, 1 μM cyclic AMP as substrate
Description: The inhibition of cyclic AMP phosphodiesterase activity by the subject compounds was assayed by the method of Filburn and Karn, Analyt. Biochem., 52:505-516 (1973), using 1 μM cyclic AMP as the substrate. Human platelet cyclic AMP phosphodiesterase was obtained from human donors. Platelets were isolated and washed by centrifugation, the membranes ruptured by a sequential freeze-thaw procedure and hypotonic lysis and the soluble enzyme isolated by high speed centrifugation. […]
Mark each entry 1.0 if its IC50 sits below 20 nM, and 0.0 for all others.

compound	targetOrTestSystem	category
O=C1CN2Cc3cc(OCCCC(=O)N(CCOC(=O)c4ccccc4)C4CCCCC4)ccc3N=C2N1	Human platelet cyclic AMP phosphodiesterase	1.0
CC(C)C(=O)OCCN(C(=O)CCCOc1ccc2c(c1)CN1CC(=O)NC1=N2)C1CCCCC1	Human platelet cyclic AMP phosphodiesterase	1.0
CN(C(=O)CCCOc1cccc2c1CN1CC(=O)NC1=N2)C1CCCCC1	Human platelet cyclic AMP phosphodiesterase	0.0
CN(C(=O)CCCOc1cccc2c1N=C1NC(=O)CN1C2)C1CCCCC1	Human platelet cyclic AMP phosphodiesterase	0.0
CC(=O)OCCN(C(=O)CCCOc1ccc2c(c1)CN1CC(=O)NC1=N2)C1CCCCC1	Human platelet cyclic AMP phosphodiesterase	1.0

Just wondering, is IC50 of CN(Cc1ccccc1)C(=O)CCCOc1ccc2c(c1)CN1CC(=O)NC1=N2 below 20 nM? 0.0

Answer whether the compound O=C1CN2Cc3cc(OCCCC(=O)N4CCCCC4CC(C4CCCCC4)C4CCCCC4)ccc3N=C2N1 (racemic) has IC50 strictly less than 20 nM 1.0

Consider CN(C(=O)CCCOc1ccc2c(c1)CN1CC(=O)NC1=N2)C(c1ccccc1)c1ccccc1 . Does its IC50 lie strictly below 20 nM? 1.0
